Assignment: determine reported HSA DB ELISA (OD450) Ymin obs for the given binders.
molecular target: T1, human serum albumin (HSA), full length (human, UniProt P02768 25-609); experiment: direct binding ELISA, coated HSA, anti-His-HRP; design: unit not given here
T1 construct: mature; Immobilized on CM5 chip (SPR) or coated on plates (ELISA)
T1 sequence (P02768 25-609): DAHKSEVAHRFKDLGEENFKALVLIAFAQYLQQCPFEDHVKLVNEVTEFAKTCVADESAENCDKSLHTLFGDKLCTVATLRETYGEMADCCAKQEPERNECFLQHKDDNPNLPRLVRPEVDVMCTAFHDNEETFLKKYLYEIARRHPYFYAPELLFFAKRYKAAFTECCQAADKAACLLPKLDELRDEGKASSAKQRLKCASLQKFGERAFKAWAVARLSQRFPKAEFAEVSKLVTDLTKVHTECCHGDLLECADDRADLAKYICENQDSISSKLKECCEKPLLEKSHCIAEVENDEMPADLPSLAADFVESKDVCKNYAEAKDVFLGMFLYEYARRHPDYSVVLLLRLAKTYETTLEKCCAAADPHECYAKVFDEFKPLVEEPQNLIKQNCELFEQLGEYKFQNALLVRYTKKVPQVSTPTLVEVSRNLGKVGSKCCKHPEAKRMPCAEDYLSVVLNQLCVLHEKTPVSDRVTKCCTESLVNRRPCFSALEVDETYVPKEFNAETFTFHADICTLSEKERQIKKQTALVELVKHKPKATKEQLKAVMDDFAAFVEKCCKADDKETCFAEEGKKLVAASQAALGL
The reply should be a number, written without any unit.

Read the entry ADX_6727_D10 (Q33D/K85T) (designed binder, Full His6-tagged entry) MGVSDVPRDLEVVAATPTSLLISWDAPAVTVRYYRITYGREVDKYSDLGPLYIYQEFTVPGSKSTATISGLKPGVDYTITVYAVTGSGESPASSTPISINYRTEIDKPSQHHHHHH and write its reported HSA DB ELISA (OD450) Ymin obs. 2

Read the entry ADX_6727_F06 (L41A/K85T) (designed binder, Full His6-tagged entry) MGVSDVPRDLEVVAATPTSLLISWDAPAVTVRYYRITYGREVQKYSDLGPAYIYQEFTVPGSKSTATISGLKPGVDYTITVYAVTGSGESPASSTPISINYRTEIDKPSQHHHHHH and write its reported HSA DB ELISA (OD450) Ymin obs. 19
